Every entry's value here was drawn from patent US20220324970A1.

Task for the reader: assign each of the following binders its reported pKd.
# measured_target: T1, human pIgR extracellular domain 4-domain 5 (D4-D5) (human, UniProt P01833 350-565)
# T1 construct: HIS-tagged construct made in HEK293 cells; also called hpIgR domains 4-5
# T1 chain: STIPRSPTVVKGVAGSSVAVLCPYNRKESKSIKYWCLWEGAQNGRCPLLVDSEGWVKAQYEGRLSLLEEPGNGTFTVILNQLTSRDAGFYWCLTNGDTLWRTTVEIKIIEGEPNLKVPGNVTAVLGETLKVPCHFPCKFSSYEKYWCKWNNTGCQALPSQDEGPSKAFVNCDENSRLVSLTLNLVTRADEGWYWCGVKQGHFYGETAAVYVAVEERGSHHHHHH
# experimental_protocol: BLI (Octet RED384), 1:1 fit, 25 C, PBS
When answering, recall that pKd equals minus log10 of the concentration in mol/L, and write that number alone.

stdin: # get_value(readout='pKd', item= VHH11-linker-mono-Fc protein (Fc fusion, made in CHO cells; also called VHH11-mono-Fc; hpIgR_250) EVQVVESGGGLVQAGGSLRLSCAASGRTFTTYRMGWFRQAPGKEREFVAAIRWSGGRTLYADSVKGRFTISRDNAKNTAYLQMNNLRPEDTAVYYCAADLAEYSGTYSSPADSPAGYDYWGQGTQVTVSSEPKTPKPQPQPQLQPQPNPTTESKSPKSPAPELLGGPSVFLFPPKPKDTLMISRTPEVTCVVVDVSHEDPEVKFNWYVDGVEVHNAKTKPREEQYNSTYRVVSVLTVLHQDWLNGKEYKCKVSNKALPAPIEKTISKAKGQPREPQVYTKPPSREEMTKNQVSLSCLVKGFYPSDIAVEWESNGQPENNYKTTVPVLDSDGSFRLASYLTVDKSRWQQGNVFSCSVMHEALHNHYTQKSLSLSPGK )
stdout: 7.82

stdin: Another binder: VHH12-linker-mono-Fc protein (Fc fusion, made in CHO cells; also called VHH12-mono-Fc; hpIgR_266) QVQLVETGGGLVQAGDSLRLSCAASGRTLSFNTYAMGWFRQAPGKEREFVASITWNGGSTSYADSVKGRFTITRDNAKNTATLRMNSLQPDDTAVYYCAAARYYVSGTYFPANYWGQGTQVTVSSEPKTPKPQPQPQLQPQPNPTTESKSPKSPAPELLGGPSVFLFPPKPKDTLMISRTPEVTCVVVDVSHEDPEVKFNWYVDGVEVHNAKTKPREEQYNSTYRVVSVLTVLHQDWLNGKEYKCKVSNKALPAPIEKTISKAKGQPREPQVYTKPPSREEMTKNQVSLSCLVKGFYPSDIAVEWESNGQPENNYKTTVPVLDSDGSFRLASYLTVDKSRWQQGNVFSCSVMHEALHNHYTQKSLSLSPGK
stdout: 7.14

stdin: Also check VHH9-linker-mono-Fc protein (Fc fusion, made in CHO cells; also called VHH9-mono-Fc; hpIgR_221) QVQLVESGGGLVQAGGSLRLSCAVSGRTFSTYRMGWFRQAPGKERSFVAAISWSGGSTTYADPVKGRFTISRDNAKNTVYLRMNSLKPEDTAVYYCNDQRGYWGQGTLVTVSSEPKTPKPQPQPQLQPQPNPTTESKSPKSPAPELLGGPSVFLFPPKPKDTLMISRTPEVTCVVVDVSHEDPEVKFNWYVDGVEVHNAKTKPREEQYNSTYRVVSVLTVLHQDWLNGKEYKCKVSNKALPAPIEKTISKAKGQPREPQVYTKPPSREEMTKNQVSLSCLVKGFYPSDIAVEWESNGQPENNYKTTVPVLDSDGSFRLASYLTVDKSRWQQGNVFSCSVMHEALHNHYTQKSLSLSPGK
stdout: 7.90

stdin: What do we get for VHH10-linker-mono-Fc protein (Fc fusion, made in CHO cells; also called VHH10-mono-Fc; hpIgR_225) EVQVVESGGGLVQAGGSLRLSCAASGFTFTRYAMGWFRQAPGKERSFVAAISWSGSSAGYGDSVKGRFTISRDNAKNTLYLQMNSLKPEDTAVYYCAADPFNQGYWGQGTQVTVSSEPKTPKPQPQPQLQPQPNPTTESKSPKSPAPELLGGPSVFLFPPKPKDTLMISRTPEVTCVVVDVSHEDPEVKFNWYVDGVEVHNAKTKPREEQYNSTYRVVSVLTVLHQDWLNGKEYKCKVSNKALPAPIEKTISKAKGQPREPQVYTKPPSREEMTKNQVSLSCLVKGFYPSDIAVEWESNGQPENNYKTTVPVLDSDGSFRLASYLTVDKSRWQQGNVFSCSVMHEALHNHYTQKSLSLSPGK ?
stdout: 6.94
